Recorded growth inhibition for the following compounds
test system: DIPGX9 (diffuse intrinsic pontine glioma line); assay: growth inhibition (% activity, log2 RLU normalised to DMSO / staurosporine); higher = more growth inhibition; settings: 33 µM
Numeric only. Scale: %

Consider the following illustrative entries.
# input # get_value(readout='growth inhibition', item= "OC1(c2ccc(Cl)c(C(F)(F)F)c2)CCN(CCCC(c2ccc(F)cc2)c2ccc(F)cc2)CC1" )
# output -1.11

# input Reported growth inhibition, compound "Cc1nc2n(c(=O)c1CCN1CCC(c3noc4cc(F)ccc34)CC1)CCCC2" : ____
# output 1.08

# input Dear colleague, I am looking for the recorded growth inhibition of the following compound: CN1CCN2c3ncccc3Cc3ccccc3C2C1 (centres undefined)
# output -1.19

# input Data request, read-out growth inhibition, for "N[C@H](C(=O)O)[C@H](O)c1ccc(O)c(O)c1"
# output -0.989

# input Returns the measured growth inhibition for the input compound. Input: "CC(=O)O[C@H]1C(=O)[C@@]2(C)[C@H]([C@H](OC(=O)c3ccccc3)[C@]3(O)C[C@H](OC(=O)[C@H](O)[C@@H](NC(=O)c4ccccc4)c4ccccc4)C(C)=C1C3(C)C)[C@]1(OC(C)=O)CO[C@@H]1C[C@@H]2O"
# output 22

More entries:
# input Need growth inhibition of "Cn1c([N+](=O)[O-])cnc1COC(N)=O" , thanks.
# output 0.536

# input Endpoint output: growth inhibition of "O=C(CCCCCCC(=O)Nc1ccccc1)NO" . Value?
# output 49.5

# input What value of growth inhibition has been recorded for this entry: OC(CNCC(O)C1CCc2cc(F)ccc2O1)C1CCc2cc(F)ccc2O1 (centres undefined)
# output 4

# input Consider the compound shown here: CC1=C(C(=O)OC(C)C)C(c2cccc([N+](=O)[O-])c2)C(C(=O)OC2CN(C(c3ccccc3)c3ccccc3)C2)=C(N)N1 (centres undefined) What is its recorded growth inhibition?
# output 3.53

* * *

test system: HGGX6 (H3.3 G34R paediatric high-grade glioma line); assay: growth inhibition (% activity, log2 RLU normalised to DMSO / staurosporine); higher = more growth inhibition; settings: 33 µM
quantity measured: growth inhibition (%)
API: value field is a number in %; no unit string.

Here are 2 molecules together with their reported answers.
# input # query: growth inhibition | item C#CCC(Cc1cnc2nc(N)nc(N)c2n1)c1ccc(C(=O)N[C@@H](CCC(=O)O)C(=O)O)cc1 (stereo partly specified) | system: HGGX6
# output 24

# input Value wanted: growth inhibition (HGGX6) of entry "CCCCN(CCCC)CCCOC(=O)c1ccc(N)cc1"
# output 5.63

Further cases:
# input Lookup: growth inhibition / HGGX6 / "Fc1ccc(C(c2ccc(F)cc2)N2CCN(C/C=C/c3ccccc3)CC2)cc1"
# output 2.44

# input Tell me reported growth inhibition for "CC(=O)OCC(=O)[C@@]1(O)CC[C@H]2[C@@H]3CCC4=CC(=O)CC[C@]4(C)[C@H]3C(=O)C[C@@]21C" , tested with HGGX6.
# output -4.47

# input Test system HGGX6; read-out growth inhibition; what value for "Cc1c(NC(=O)c2cccnc2)c(=O)n(-c2ccccc2)n1C" ?
# output 2.09

# input Identify the measured growth inhibition of "NNc1nncc2ccccc12" for HGGX6.
# output 0.883

# input # get_value(readout= growth inhibition, system= HGGX6) for "c1cc(CN2CCCNCCNCCCNCC2)ccc1CN1CCCNCCNCCCNCC1"
# output 5.37

# input Request - read-out growth inhibition | tested on HGGX6 | molecule "CNC(=O)c1ccccc1Sc1ccc2c(/C=C/c3ccccn3)n[nH]c2c1"
# output 20.3

# input Under HGGX6: growth inhibition value of "CCOC(=O)[C@H](CCc1ccccc1)N[C@@H](C)C(=O)N1[C@H](C(=O)O)C[C@@H]2CCC[C@@H]21" ?
# output -5.1

# input Identify the measured growth inhibition of "O=C(Nc1ccc([N+](=O)[O-])cc1Cl)c1cc(Cl)ccc1O" for HGGX6.
# output 5.02

# input Enter reported growth inhibition observed with HGGX6 for "CC(C)n1c(/C=C/[C@@H](O)C[C@@H](O)CC(=O)O)c(-c2ccc(F)cc2)c2ccccc21"
# output 10.2
